# System Tested: PI3Kγ (Homo sapiens, UniProt P48736)
# Sequence (P48736 whole entry, species assumed): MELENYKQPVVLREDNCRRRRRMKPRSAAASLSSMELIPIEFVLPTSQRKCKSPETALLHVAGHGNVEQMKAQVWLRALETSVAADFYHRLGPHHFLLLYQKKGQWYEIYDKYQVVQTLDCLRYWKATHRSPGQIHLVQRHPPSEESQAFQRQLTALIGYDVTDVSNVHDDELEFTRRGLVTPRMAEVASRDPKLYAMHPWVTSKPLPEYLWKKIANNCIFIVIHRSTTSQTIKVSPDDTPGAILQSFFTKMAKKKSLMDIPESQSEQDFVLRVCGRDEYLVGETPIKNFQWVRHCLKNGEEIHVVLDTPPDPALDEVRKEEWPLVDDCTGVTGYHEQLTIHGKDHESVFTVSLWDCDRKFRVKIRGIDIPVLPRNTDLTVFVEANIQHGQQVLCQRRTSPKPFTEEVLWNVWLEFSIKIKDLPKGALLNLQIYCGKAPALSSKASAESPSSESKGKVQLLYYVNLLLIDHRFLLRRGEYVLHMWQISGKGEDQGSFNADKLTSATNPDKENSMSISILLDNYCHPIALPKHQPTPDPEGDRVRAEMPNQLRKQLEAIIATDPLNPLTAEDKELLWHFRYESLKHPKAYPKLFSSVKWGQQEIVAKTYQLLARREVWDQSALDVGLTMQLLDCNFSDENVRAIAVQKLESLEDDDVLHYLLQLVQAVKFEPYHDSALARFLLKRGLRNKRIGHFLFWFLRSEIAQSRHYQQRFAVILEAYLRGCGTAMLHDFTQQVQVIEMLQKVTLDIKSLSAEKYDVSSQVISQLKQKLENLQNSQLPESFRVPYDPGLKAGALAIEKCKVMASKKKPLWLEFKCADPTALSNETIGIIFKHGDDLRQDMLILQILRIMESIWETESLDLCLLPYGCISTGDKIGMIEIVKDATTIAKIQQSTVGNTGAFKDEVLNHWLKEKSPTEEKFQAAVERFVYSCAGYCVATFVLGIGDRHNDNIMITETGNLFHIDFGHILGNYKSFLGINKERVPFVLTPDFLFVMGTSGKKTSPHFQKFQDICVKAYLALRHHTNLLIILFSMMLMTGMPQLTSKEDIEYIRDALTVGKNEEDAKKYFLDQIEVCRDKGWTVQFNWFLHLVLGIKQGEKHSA
# Assay Method Text: PI3Kγ inhibitory activity (PI3-kinase HTRF assay, inhibition ratio)
# Type: biochemical
# Conditions: 0.5 h, compound at 10 μmol/L; read-out: PI3Kg Inhibition Ratio % (10 μM)

Test Smiles: COc1cc(N2CCc3nc(NC(=O)Nc4ccccc4C(=O)CCC(C)C)sc3C2)nc(OC)n1
inhibition at 10 µM: ≥ 95%

Test Smiles: COc1nccc(N2CCc3nc(NC(=O)Nc4ccccc4C(=O)NC(C)C)sc3C2)n1
inhibition at 10 µM: ≥ 95%

Test Smiles: COc1cc(N2CCc3nc(NC(=O)Nc4cnccc4OCCC(C)C)sc3C2)nc(OC)n1
inhibition at 10 µM: ≥ 95%

Source listed as patent US20120071475A1.
